- Test system: HCC-2998 colon
- assay-overview: NCI tumour cell line growth inhibition, 48 h
Please provide measured TGI for the entries that follow.

Consider the following illustrative entries.
{"molecule": "N#C/C(=C1/c2cc([N+](=O)[O-])ccc2-c2c1cc([N+](=O)[O-])cc2[N+](=O)[O-])N1CCCCC1", "result": "> 100 µM"}
{"molecule": "CCn1c(=O)c2c3ccc(OC(C)=O)cc3[nH]c2c2ccc(OC(C)=O)cc21", "result": "54.4 µM"}
{"molecule": "CCN(CC)CCCC(C)Nc1cc(-c2ccccc2)nc2cc(OC)ccc12 (stereo not given)", "result": "2.41 µM"}

Could you report TGI for every entry in the following list?
1. C/C=C(/C)c1cnc(CC(C)C)c(=O)[nH]1
2. COc1ccc(C2SCC(=O)N2NC(=O)C(C)Oc2ccc(Cl)cc2Cl)cc1 (stereo not given)
3. Nn1c(Sc2nc3ccccc3c(=O)n2N)nc2ccccc2c1=O

-- reply
1: > 100 µM; 2: > 100 µM; 3: 30.7 µM

* * *

- Tested on: SK-OV-3 ovarian
- assay-overview: NCI tumour cell line growth inhibition, 48 h
Entries are grouped by TGI into these classes: range 1 (below 10 µM), range 2 (10 µM to below 30 µM), range 3 (30 µM or more)

Record excerpt, results attached:
{"molecule": "Cc1cc(=O)oc2cc(OC(=O)N(CCCl)CCCl)ccc12", "group-label": "range 3"}
{"molecule": "O=C1/C(=C/c2ccc(O)cc2)CCC1CNc1ccccc1 (stereo not given)", "group-label": "range 3"}
{"molecule": "CC(/C=C/NNC1=NC(c2ccccc2)C(c2ccccc2)=NN1)Sc1ccccc1N (stereo not given)", "group-label": "range 3"}
{"molecule": "COc1cc2c3c(ncc2c(OC)c1OC)-c1cc2c(cc1C3)OCO2", "group-label": "range 3"}
{"molecule": "COc1ccc(NC(=O)CC(=O)N2N=C(N(c3ccccc3)c3ccccc3)CC2c2ccccc2)cc1 (stereo not given)", "group-label": "range 3"}

-- ask Entry O=C(O)CCSC1=NCCN1 belongs to which category?
-- reply range 3

-- ask Entry COc1cc2oc(=O)cc(C)c2cc1OC belongs to which category?
-- reply range 3

-- ask Entry O=c1c2cc(Br)ccc2ncn1COCc1ccccc1 belongs to which category?
-- reply range 3

-- ask Entry COC(=O)C1CC23C=CCN4CC(C2C)C2(c5ccccc5NC12)C43 (stereo not given) belongs to which category?
-- reply range 3

-- ask Entry COc1ccc(OC)c(C[P+](c2ccccc2)(c2ccccc2)c2ccccc2)c1 belongs to which category?
-- reply range 2

-- ask Entry CC(C)(CN1CCCCC1)C(/C=C/c1ccccc1)=N\NC(=O)N/N=C(/C=C/c1ccccc1)C(C)(C)CN1CCCCC1 belongs to which category?
-- reply range 1

-- ask Entry Cc1c(Cl)cccc1NC(=O)/C(Cl)=C(\Cl)C(=O)O belongs to which category?
-- reply range 3

-- ask Entry CC(C)(Cc1ccccc1)N1C(=O)N1C(C)(C)Cc1ccccc1 belongs to which category?
-- reply range 3

-- ask Entry C=CCCCCn1c2ccccc2c2c(C)c3cnccc3c(C)c21 belongs to which category?
-- reply range 3

-- ask Entry C/C(=N\NC(=S)N1CCN(c2ccccn2)CC1)c1nccs1 belongs to which category?
-- reply range 2

* * *

- Tested on: T-47D breast
- assay-overview: NCI tumour cell line growth inhibition, 48 h
Please enter yes (1) where TGI is greater than or equal to 10 µM, and no (0) where it is lower.

{"molecule": "COc1ccc(NC(=O)CC(=O)N2N=C(N(c3ccccc3)c3ccccc3)CC2c2ccccc2)cc1 (stereo not given)", "group-label": "yes (1)"}
{"molecule": "CC1CN=C(c2ccc(-c3nc(-c4ccc(C5=NCC(C)N5)cc4)nc(N(C)C)n3)cc2)N1 (stereo not given)", "group-label": "yes (1)"}
{"molecule": "CC(C)(Cc1ccccc1)N1C(=O)N1C(C)(C)Cc1ccccc1", "group-label": "yes (1)"}
{"molecule": "CC(C)(C)C(=O)N1CCN(C=O)C1=S", "group-label": "yes (1)"}
{"molecule": "CC(C)(C)n1cc(-c2ccnc(NCCCNS(=O)(=O)c3ccc(Br)cc3)c2)c(-c2cccc(O)c2)n1", "group-label": "no (0)"}

-- ask Is TGI for O=C1/C(=C/c2ccc(O)cc2)CCC1CNc1ccccc1 (stereo not given) at or above 10 µM?
-- reply yes (1)

-- ask Is TGI for CC(=O)NC(=O)NC1=NCCC(=O)N1CCc1c[nH]c2ccccc12 at or above 10 µM?
-- reply yes (1)

-- ask Is TGI for C/C(=C(/c1ccc(O)cc1)c1ccc(Cl)cc1)c1ccccc1 at or above 10 µM?
-- reply no (0)

-- ask Is TGI for C/C=C(/C)c1cnc(CC(C)C)c(=O)[nH]1 at or above 10 µM?
-- reply yes (1)

-- ask Is TGI for COc1ccc(NC(=O)n2nc(/C=C\c3ccc(O)c(OC)c3)cc2/C=C\c2ccc(O)c(OC)c2)cc1 at or above 10 µM?
-- reply yes (1)

* * *

- Tested on: HOP-62 NSCLC
- assay-overview: NCI tumour cell line growth inhibition, 48 h
Please provide measured TGI for the entries that follow.

Consider the following illustrative entries.
{"compound": "C=CCOC1(CC=C)C(=O)OC2C(O)COC21O (stereo unspecified)", "TGI": "> 100 µM"}
{"compound": "O=P(O)(O)C=C=C1CCCCC1", "TGI": "> 100 µM"}
{"compound": "Clc1ccc2c(c1)C(N1CCNCC1)=Nc1ccccc1O2", "TGI": "4.66 µM"}

Could you report TGI for every entry in the following list?
1. O=C(CSc1nc(-c2ccccc2)c(-c2ccccc2)[nH]1)NNC(=S)Nc1ccccc1
2. Nc1nc(N)nc(CC(=O)O)n1
3. COC(=O)c1ccc(CN2C(=O)C(Cl)=C(Nc3ccc(OC)c(Cl)c3)C2=O)cc1

-- reply
> 100 µM
> 100 µM
> 50 µM

Could you report TGI for every entry in the following list?
1. Cc1nc2cccc(F)c2c(=O)n1-c1nnc(C(F)(F)F)s1
2. CN(C)CCCc1c2ccccc2nc2ccc(Cl)cc12
3. COc1ccccc1NC(=O)C1=C(C)NC(C)=C(C(=O)Nc2ccccc2OC)C1c1ccc(N(C)C)cc1
4. CC(=O)NC(=O)NC1=NCCC(=O)N1CCc1c[nH]c2ccccc12
5. CCC[CH2][Sn]1([CH2]CCC)[O]C(=O)c2ccc(N)cc2[O]1

-- reply
1: > 10 µM; 2: 30 µM; 3: 57.2 µM; 4: > 100 µM; 5: 2.82 µM

* * *

- System: 786-0 renal
- assay-overview: NCI tumour cell line growth inhibition, 48 h
measured-metric: TGI

Consider the following illustrative entries.
{"compound": "COc1ccc(OC)c(C[P+](c2ccccc2)(c2ccccc2)c2ccccc2)c1", "TGI": "> 100 µM"}
{"compound": "CCOC(=O)c1c(-c2ccccc2)c(C(OC(c2ccccc2)c2c(-c3ccccc3)c(C(=O)OCC)n3ccccc23)c2ccccc2)c2ccccn12 (stereo not drawn)", "TGI": "> 100 µM"}
{"compound": "C=CCc1ccccc1C1CC2(C(=O)OC)OC1C(C(=O)OC)=C2C(=O)OC (stereo not drawn)", "TGI": "> 10 µM"}

Could you report TGI for every entry in the following list?
1. COc1cc2c3c(ncc2c(OC)c1OC)-c1cc2c(cc1C3)OCO2
2. CCCCCCNC(=O)n1cc(F)c(=O)[nH]c1=O
3. CCOC(=O)Nc1nc2cc(OCC)ccc2s1
4. COc1cc(S(=O)(=O)Nc2ccc(-c3csc(/N=C\c4ccccc4)n3)cc2)ccc1Cl
5. COc1c(Sc2ccccc2)cc(Sc2ccccc2)c2cccnc12

-- reply
> 100 µM
23.4 µM
> 100 µM
> 100 µM
65.9 µM

Could you report TGI for every entry in the following list?
1. CC(=O)NC(=O)NC1=NCCC(=O)N1CCc1c[nH]c2ccccc12
2. CC1=C(/C=C/C(C)=C/C=C/C(C)=C/C=C/C=C(C)/C=C/C=C(C)/C=C/C2=C(C)C(=O)C(O)CC2(C)C)C(C)(C)CC(O)C1=O (stereo not drawn)
3. CC1=NOC(=O)C1N=Nc1ccc(Br)c(C)c1 (stereo not drawn)
4. COc1ccc(C2SCC(=O)N2NC(=O)C(C)Oc2ccc(Cl)cc2Cl)cc1 (stereo not drawn)

-- reply
["> 100 µM", "> 100 µM", "38.8 µM", "41.7 µM"]

Could you report TGI for every entry in the following list?
1. O=C1c2ccccc2C(=O)c2nn(N=P(CP(=Nn3nc4c(n3)C(=O)c3ccccc3C4=O)(c3ccccc3)c3ccccc3)(c3ccccc3)c3ccccc3)nc21
2. CC1=CC[C@](C)(O)[C@@]2(C)CC[C@H]3C(=C(C)C)C(=O)C[C@]3(C)C[C@H]12

-- reply
1. > 100 µM
2. > 50 µM
